Tested on: SW-620 colon
assay-summary: NCI-60 one-dose screen, 48 h (100 = growth as untreated, 0 = no growth, -100 = all killed)
condition-parameters: 10 µM unless noted
Experimental: Growth inhibition of the SW-620 human tumor cell line is measured as a screen for anti-cancer activity. Cells are grown in 96 well plates and exposed to the test compound for 48 hours. Compounds are tested at a single concentration, which is 10^-5 M for most compounds. The reported endpoint is percent growth (GI% or GIPRCNT), where numbers from 0 - 100% represent growth inhibition, and numbers from -100% - 0 represent cell death. For example, a value of 40 represents 60% growth inhibition. […]
This is part of a sample that, as a whole, favours compounds with a hit. Of some 83,000 tested, about 20% had one in any assay.
measurement-type: growth (%)
Give the number; % is assumed, so skip it.

Observe how each entry below is paired with its result.
# smiles-representation, target-entity, measurement-type, value-unit, observed
measured = [
    ("COc1ccc(N(CC(=O)NCCC[Te]c2ccccc2)C(=O)CNC(=O)OC(C)(C)C)cc1", "SW-620 colon", "growth", "%", 53.1),
    ("O=[N+]([O-])/C=C\\c1ccc(Cl)c(Cl)c1", "SW-620 colon", "growth", "%", -6.79),
    ("CC1=C(CCCOC(=O)[C@H](N)CC(C)C)C2=C(C)C3(CC3)[C@@](C)(O)C(=O)C2=C1", "SW-620 colon", "growth", "%", 87.1),
    ("O=[N+]([O-])c1cc([N+](=O)[O-])c(Nn2c3ccccc3c3ccccc32)c([N+](=O)[O-])c1", "SW-620 colon", "growth", "%", 11.1),
]

Now let's try a different one.
Ask: Under SW-620 colon: growth value of `O=C1C(=Cc2cn(Cc3ccccc3)c3ccccc23)C(=O)N(Cc2ccccc2)C(=O)N1Cc1ccccc1` ?
Reply: 101
